Where these numbers come from: ChEMBL document CHEMBL4342436

# reported IC50; entries follow
# Tested on: MDA-MB-435
# protocol: Cytotoxicity against human MDA-MB-435 cells after 72 hrs by MTT assay
# Assay type: functional, cell-based
# measurementContext: MDA-MB-435, 72 h

compound: C=C1C(=O)O[C@H]2[C@H]1[C@@H](OC(=O)C(C)CC)CC(=C)[C@]1(O)CC=C(C)[C@H]21 (some centres not stated)
IC50: 7 to 10 µM

Moving on to another compound below.
The reported IC50 of the compound C=C1C(=O)O[C@H]2[C@H]1[C@@H](O)C[C@]1(C)O[C@@]13C(=O)C=C(C)[C@H]23 was 7 to 10 µM

====

# Tested on: A549
# protocol: Cytotoxicity against human A549 cells after 72 hrs by MTT assay
# Format: functional, cell-based
# measurementContext: A549, 72 h
measuredAttribute: pIC50
Kindly note that pIC50 refers to -log10 of the concentration in mol/L and answer with the value alone.

The reported pIC50 of the molecule CC#CC#CC1=C(CCCCO)C(O)C(O)C1=O (stereo unspecified) was 5.12

====

# System: SH-SY5Y
# protocol: Cytotoxicity against human SH-SY5Y cells after 72 hrs by MTT assay
# Type: functional, cell-based
pIC50: −log10 of the molar value.
# reported pIC50; entries follow

Please review the following examples before continuing.
molecule: COc1ccc(-c2oc3cc(OC)c(OC)c(O)c3c(=O)c2OC)cc1OC
pIC50: 3.63 to 3.64
--
molecule: CC1=CCC2[C@@H]1[C@H]1OC(=O)[C@@H](C)[C@@H]1C[C@]1(C)O[C@H]21 (stereo partly drawn)
pIC50: 3.63 to 3.64

Moving on to another molecule below.
The reported pIC50 of the molecule c1cc2c(cc1[C@H]1OC[C@H]3[C@@H]1CO[C@@H]3c1ccc3c(c1)OCO3)OCO2 was 3.63 to 3.64

====

# System: MCF7
# protocol: Cytotoxicity against human MCF7 cells after 24 hrs by MTT assay
# Type: functional, cell-based
# measurementContext: MCF7, 24 h
measuredAttribute: IC50

The compound CC1=CC(=O)C2=C(C)C[C@@H](O[C@@H]3O[C@H](CO)[C@@H](O)[C@H](O)[C@H]3O)[C@@H]3[C@@H](OC(=O)[C@H]3C)[C@@H]12 , tested on MCF7, showed IC50 of 26.8 to 48.7 µM

The compound CC1=C[C@@H]2[C@@H]([C@@H](C)C(=O)O)CC[C@@](C)(O)[C@@H]2C[C@H]1O , tested on MCF7, showed IC50 of 26.8 to 48.7 µM
